Listing of entries alongside the reported growth inhibition.
assay_name: NCI Yeast Anticancer Drug Screen. Data for the rad50 strain (AID 155);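 also: 0% = growth of vehicle-only cultures of the same strain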
condition_set: S. cerevisiae rad50 strain growth inhibition; at 50.0 µM; hits give high values
The panel holds about 79,000 compounds, 15% with a hit somewhere; the sample as a whole holds those more often.
reported_metric: growth inhibition (%)

| compound | reported_metric | value |
| --- | --- | --- |
| Cc1cc(C)c(C(C=O)c2ccccc2)c(C)c1 (stereo not given) | growth inhibition | 18.6 |
| COc1ccc(OC)c(/C=C/c2ccccc2)c1 | growth inhibition | 0.5 |
| COc1cccc2c1ccc1nonc12 | growth inhibition | 0.05 |
| CCCCCCCOC(C)=O | growth inhibition | 14.8 |
| O=C(NC(=O)c1c(F)cccc1F)Nc1ccc(Cl)nc1 | growth inhibition | 8.75 |
| O=C(/C=C/c1c[nH]c2ccccc12)c1ccccc1[N+](=O)[O-] | growth inhibition | 5.45 |
| COC(=O)/C(C#N)=C(/NCc1ccccc1)Nc1ccccc1 | growth inhibition | 20.8 |
| CC(C)C(=O)Nc1nc2c(ncn2C2OC(CO)C(O)C2O)c(=O)[nH]1 (stereo not given) | growth inhibition | 5.9 |
| NC(CCC(N)C(=O)O)C(=O)O (stereo not given) | growth inhibition | -25.4 |
| NC(=O)CC(N)C(=O)OCc1ccc([N+](=O)[O-])cc1 (stereo not given) | growth inhibition | -12.7 |
| CCCSCCC(N)C(=O)O (stereo not given) | growth inhibition | -33.2 |
| CCCCNC(=O)NCCCC | growth inhibition | 5.85 |
| CC(=O)Oc1ccccc1Cl | growth inhibition | 18.1 |
| O=C1/C(=C/c2ccccc2)N=C(c2ccccc2)N1n1c(-c2ccccc2)nc2ccccc2c1=O | growth inhibition | 7.5 |
| O=C(OC1CCCC1)c1ccccc1 | growth inhibition | 5.3 |
| O=S(=O)(Oc1ccc(OS(=O)(=O)c2ccccc2)cc1)c1ccccc1 | growth inhibition | -8.8 |
| CCOC(=O)CCC(NC(=O)c1ccc(NCc2ccc3nc(-c4ccccc4)c(Cl)nc3c2)cc1)C(=O)OCC (stereo not given) | growth inhibition | 29.7 |
| CC/C=C(\C)C(C#N)(CCC)C(=O)OCC (stereo not given) | growth inhibition | -1.8 |
| N#Cc1c(-c2ccc(Cl)cc2)c2c(n(C3OC(CO)C(O)C(O)C3O)c1=S)CCC2 (stereo not given) | growth inhibition | 12.5 |
| O=S(=O)(CCN1CCCCC1)c1ccc(F)cc1 | growth inhibition | 21.4 |
| Clc1ccccc1CSc1cnnc(SCc2ccccc2Cl)c1SCc1ccccc1Cl | growth inhibition | -0.1 |
| C=CCc1c(Cl)nc(Cl)nc1Cl | growth inhibition | -14.8 |
| COC(=O)c1[nH]c(=O)c(C#N)c(C(=O)OC)c1C(=O)c1cccnc1 | growth inhibition | 2.95 |
| CC(=O)N(CCc1ccccc1)C(C)(C#N)c1ccccc1 (stereo not given) | growth inhibition | -0.2 |
| CC(=O)NC(C(=O)NC(CSCc1ccccc1)C(=O)O)=C(C)C (stereo not given) | growth inhibition | -2.05 |
